Where do these numbers come from? They come from the supplement of paper PMC10201428.

Tested on: VchCAST RNA-guided transposition machinery (E. coli BL21(DE3) host, lacZ target)
Experiment: relative integration efficiency (T-LR orientation) vs wild-type transposon end (log2 (normalized fold change)); transposon end mutated: right end (5 bp flank + 75 bp right end); higher = more efficient transposition
Exercise: for every item that follows, state its recorded relative integration efficiency (log2).
Field format: numeric only.

sequence ACATTTGTTGATACAACCAATTTTTGATAATTACACCCAATTTATGATAATTATCACACCCAATTTATGATATTGCCTCTGATCATAGTCAGACCAACATTGCTACGACCCGTATTCGCACCGACAC , relative integration efficiency (log2) observed: -1.18

sequence ACATTTGTTGATACAACCATAAAATGATAATTACACCCCGCCCGGTCGCCGGCGACACAAACGCCCGGTCGCGGTAAGAGGATCATAGTCAGACCAACATTGCTACGACCCGTATTCGCACCGACAC , relative integration efficiency (log2) observed: 0.746

sequence ACATTGGTCGATACAACCATAAAATGATAATTACACCCATAAATTGATAATTATCACACCCAATTTAACTATAACGCTCTGATCATAGTCAGACCAACATTGCTACGACCCGTATTCGCACCGACAC , relative integration efficiency (log2) observed: -5.26

sequence ACATTTGTGGATCCAACCATAAAATGATAATTACACCCATAAATTGATCATTATCACACCCAATTTAACTATAACGCTCTGATCATAGTCAGACCAACATTGCTACGACCCGTATTCGCACCGACAC , relative integration efficiency (log2) observed: 1.72

sequence ACATTTGTGGATCCAACCATAAAATGATAATTACACCCATAAATTCATCATTATCACACCCAATTTAACTATAACGCTCTGATCATAGTCAGACCAACATTGCTACGACCCGTATTCGCACCGACAC , relative integration efficiency (log2) observed: 1.15

sequence ACATTTGTTGATACAACCATAAAAGGATAATTACACCCATAAATTGATAATTATCACACCCCATTTAACTATAACGCTCTGATCATAGTCAGACCAACATTGCTACGACCCGTATTCGCACCGACAC , relative integration efficiency (log2) observed: 2.32

sequence ACATTTCTTCATACAACCATAAAATGATAATTACACCCATAAATTCATAATTATCACACCCAATTTAACTATAACGCTCTGATCATAGTCAGACCAACATTGCTACGACCCGTATTCGCACCGACAC , relative integration efficiency (log2) observed: -3.54

sequence ACATTGGTGGATACAACCATAAAATGATAATTACACCCATAAATGGATAATTATCACACCCAATTTAACTATAACGCTCTGATCATAGTCAGACCAACATTGCTACGACCCGTATTCGCACCGACAC , relative integration efficiency (log2) observed: -5.04

sequence ACATTTGTTGATACAACCATAAAATGATAATTACTCTGATCATAGTCAGACACCCATAAATTGATAATTATCAGTGGGTATTTAACTATAACGCCAACATTGCTACGACCCGTATTCGCACCGACAC , relative integration efficiency (log2) observed: 1.66

sequence ACATTTCTGGATACAACCATAAAATGATAATTACACCCATAAATTGATCATTATCACACCCAATTTAACTATAACGCTCTGATCATAGTCAGACCAACATTGCTACGACCCGTATTCGCACCGACAC , relative integration efficiency (log2) observed: 0.307
